Experiment: Selectivity index, ratio of IC50 for rat L6 cells to IC50 for Leishmania donovani MHOM/SD/62/ISCL2D axenic amastigotes
Assay type: toxicity
Settings: read-out: Ratio IC50

{"structure as smiles": "CNc1nc(Cl)c2ncn([C@@H]3O[C@H](C)[C@@H](O)[C@H]3O)c2n1", "comparative sign": "<", "selectivity ratio": 0.5}
{"structure as smiles": "C[C@H]1O[C@@H](n2cnc3c(N)nc(N)nc32)[C@H](O)[C@@H]1O", "comparative sign": "=", "selectivity ratio": 7}
{"structure as smiles": "CNc1ncnc2c1ncn2[C@@H]1O[C@H](CSC)[C@@H](O)[C@H]1O", "comparative sign": "<", "selectivity ratio": 0.5}
{"structure as smiles": "CSC[C@H]1O[C@@H](n2cnc3c(N)nc(N=[N+]=[N-])nc32)[C@H](O)[C@@H]1O", "comparative sign": "=", "selectivity ratio": 0.8}
{"structure as smiles": "CC(=O)O[C@@H]1[C@H](OC(C)=O)[C@@H](CN2C(=O)c3ccccc3C2=O)O[C@H]1n1cnc2c(N)nc(F)nc21", "comparative sign": "<", "selectivity ratio": 0.6}
{"structure as smiles": "CSC[C@H]1O[C@@H](n2cnc3c(N)nc(Cl)nc32)[C@H](O)[C@@H]1O", "comparative sign": "=", "selectivity ratio": 5}
{"structure as smiles": "CNc1nc(F)nc2c1ncn2[C@@H]1O[C@H](C)[C@@H](O)[C@H]1O", "comparative sign": "=", "selectivity ratio": 0.7}
{"structure as smiles": "CNc1nc(N)nc2c1ncn2[C@@H]1O[C@H](CSC)[C@@H](O)[C@H]1O", "comparative sign": "=", "selectivity ratio": 0.5}
{"structure as smiles": "C[C@H]1O[C@@H](n2cnc3c(N)nc(I)nc32)[C@H](O)[C@@H]1O", "comparative sign": "=", "selectivity ratio": 0.5}
